meta.source: the supplement of paper PMC10567573

Items are presented alongside their recorded protein stability index.
B1: PLAGL1 (parent)
chain: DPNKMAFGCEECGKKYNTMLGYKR

variants of: B1; assay: protein stability index of a GFP-peptide fusion (GPS, HEK-293T) (PSI 1-6); higher = more stable; conditions: c terminus: a fixed tail appended;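 note: lentivirally expressed fusions sorted by FACS into six bins by GFP to DsRed ratio, PSI derived from sequencing read proportions per bin multiplied by bin number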

Consider the following illustrative entries.
M19S ... 2.83
K15H ... 1.98
L20S ... 2.59

Determine its reported protein stability index: M19H 1.32

Determine its reported protein stability index: E10V 2.37

Determine its reported protein stability index: P2T 2.03

Determine its reported protein stability index: N3H 2.61

Determine its reported protein stability index: G21A 3.01
